- experiment: Bioavailability in Sprague-Dawley rat at 3 mg/kg, po and 1 mg/kg, iv measured upto 24 hrs by HPLC-MS analysis
- Type: ADME, organism-based
- conditionDetails: in vivo
Listed next: entries and their corresponding bioavailability.

entrysmiles=C[C@@H]1COCCN1c1cc(N2CCOC[C@@H]2C)nc2[nH]c(-c3ccccn3)nc12 reportedmeasurement=122%

# context switch: different compound, same bioavailability
Input line: Fill in the blank: the reported bioavailability of C[C@@H]1COCCN1c1cc(N2CCOC[C@@H]2C)nc2[nH]c(-c3cscn3)nc12 is ____.
Output line: 107%

====

- experiment: Drug concentration in C57BL/6 mouse plasma at 30 mg/kg, po measured after 8 hrs
- Assay type: ADME, organism-based
reportedMetric: concentration at 8 h (nM)
Give the value in nM but do not write nM after it.

Input line: Fill in the blank: the reported concentration at 8 h of C[C@@H]1COCCN1c1cc(N2CCOC[C@@H]2C)nc2[nH]c(-c3cscn3)nc12 is ____.
Output line: 632
